Biological target: Cytochrome P450 2D6 (Homo sapiens) (UniProt P10635)
Sequence (P10635 whole entry, looked up): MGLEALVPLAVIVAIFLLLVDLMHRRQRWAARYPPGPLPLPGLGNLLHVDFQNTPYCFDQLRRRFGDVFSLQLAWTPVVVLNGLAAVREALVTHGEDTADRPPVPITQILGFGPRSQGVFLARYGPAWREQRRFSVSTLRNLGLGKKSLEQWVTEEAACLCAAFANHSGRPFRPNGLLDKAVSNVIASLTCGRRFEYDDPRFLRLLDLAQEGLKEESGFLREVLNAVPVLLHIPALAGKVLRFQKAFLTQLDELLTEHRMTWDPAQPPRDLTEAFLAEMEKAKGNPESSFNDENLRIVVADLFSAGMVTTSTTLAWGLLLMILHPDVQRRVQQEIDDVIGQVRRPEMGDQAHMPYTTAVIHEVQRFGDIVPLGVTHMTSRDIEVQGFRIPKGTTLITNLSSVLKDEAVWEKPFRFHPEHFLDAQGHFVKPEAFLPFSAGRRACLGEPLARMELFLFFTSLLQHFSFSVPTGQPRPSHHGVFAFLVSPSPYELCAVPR
Test: Cytochrome P450 family 2 subfamily D member 6 (CYP2D6) small molecule antagonists: luciferase biochemical (cell-free) qHTS assay (AID 1645840); further: nearly all actives have a fitted effect of over 55% in size; further: potency means the concentration at half of the fitted maximal effect
Details: P450-Glo CYP2D6 enzyme, luciferin luminescence, 1 h; series mostly up to 57.4 µM
Inconclusive results are not listed. Active and inactive are the calls of the source. The call rests on the fitted dose curve; in most records, active means well fitted inhibition curve with a large enough effect in the repeat runs; inconclusive means weak or mixed curves; inactive means flat fitted curve, though single readings scatter.
PROPERTY: Potency

Worked cases, Potency given:
{"columns": ["COMPOUND", "Potency"],
 "data": [
  ["CCCCCCCC[N+](C)(C)CCCCCCCC", "0.674 µM (active)"],
  ["CC(C)n1cnc2c(Nc3cccc(Cl)c3)nc(NCCO)nc21", "16.9 µM (active)"],
  ["CCN(CC)c1ccc(C(=C2C=CC(=[N+](CC)CC)C=C2)c2cc(S(=O)(=O)O)ccc2S(=O)(=O)[O-])cc1", "15.5 µM (active)"],
  ["CNC(=O)c1cccc2cc(Oc3ccnc4cc(OCC5(N)CC5)c(OC)cc34)ccc12", "inactive"],
  ["COc1ccc(C(=O)N(CCC(C)C)Cc2nc(C)c(C)n2Cc2ccccc2C)c(OC)c1", "0.952 µM (active)"]
]}

Recorded Potency of CC1CN(CC(=O)Nc2ccc3c(c2)Cc2cccc(-c4cc(=O)cc(N5CCOCC5)o4)c2S3)CC(C)O1 (stereo not given) , please.
inactive

Recorded Potency of CN(C)CC(=O)Nc1ccc2[nH]c(=O)c3ccccc3c2c1 , please.
inactive

Recorded Potency of CNc1nc(-c2ccc3c(N)n[nH]c3c2)cc(N2CC(C(=O)NC3CCCCC3)CCC2C)n1 (stereo not given) , please.
23.9 µM (active)

Recorded Potency of CCOC(=O)c1cccc(CNc2ccc(N(C)C(=O)Nc3ccccc3)cc2)c1 , please.
5.35 µM (active)

Recorded Potency of Cc1ccc2c(Nc3ccc(Cl)cc3)nccc2c1Nc1ncccc1-c1ncnc2nc[nH]c12 , please.
12 µM (active)

Hey, just so you know, these numbers are from PubChem BioAssay (NCATS).
